B1: CAMK2B (parent)
chain: YQQIKAGAYDFPSPEWDTVTPEAK

Variants of: B1
Experiment: protein stability index of a GFP-peptide fusion (GPS, HEK-293T) (PSI 1-6); higher = more stable;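 also: lentivirally expressed fusions sorted by FACS into six bins by GFP to DsRed ratio, PSI derived from sequencing read proportions per bin multiplied by bin number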
Conditions: c terminus: a fixed tail appended
// reported protein stability index for each item listed
Give a plain numeric answer without units written out.

// solved cases for protein stability index follow
INSERT INTO results (variantnotation, observed) VALUES
  ('A23Y', 3.43),
  ('K24N', 4.11),
  ('A23N', 3.97),
  ('Y9T', 4.23),
  ('V19M', 3.95);

Turning now to a further variant:
// protein stability index value for Q3H : 3.28

meta.source: the supplement of paper PMC10567573
